The reported numbers originate from paper PMC5171792.

test system: H1N1 NA (Influenza A virus (H1N1), UniProt C3W5S3)
test details: biochemical
Assay type: biochemical
Please go through the items and note down their ΔGbind (estimated experimental).
Give bare numbers, in kJ/mol.

>>> measured_value("CCOC(=O)/C=C/c1ccc(O)c(OC)c1")
-18.5
>>> measured_value("COc1cc(C=O)ccc1O [VN, Vanillin, reference compound]")
-20
>>> measured_value("COc1cc(C=O)cc(NCCO)c1O")
-19.5
>>> measured_value("COc1c(O)ccc(/C=C/C(=O)O)c1[N+](=O)[O-]")
-18
>>> measured_value("COC(=O)/C=C/c1ccc(O)c(OC)c1")
-20.3
>>> measured_value("COc1cc(C=O)cc(O)c1O [MY23, 3-hydroxyvanillin]")
-22.7
>>> measured_value("CCCCOC(=O)/C=C/c1cc(OC)c(O)c([N+](=O)[O-])c1")
-16.4
>>> measured_value("COc1cc(/C=C/C(=O)O)ccc1S(=O)(=O)c1ccc(Oc2ccccc2)cc1")
-16.4

For every record below, what is its ΔGbind (estimated experimental)?
1. CCOC(=O)/C=C/c1cc(OC)c(OC(C)C)c([N+](=O)[O-])c1
2. COC(=O)/C=C/c1cc(OC)c(O)c([N+](=O)[O-])c1

Response line:
[-22, -17.5]

Respectfully, I request ΔGbind (estimated experimental) for each entry included below.
1. COc1cc(C=O)cc(N=C(N)N)c1O
2. COc1cc(/C=C/C(=O)O)ccc1O [FA, Ferulic acid, reference compound]
3. CCCOC(=O)/C=C/c1cc(OC)c(O)c([N+](=O)[O-])c1

Response line:
1: -23.4; 2: -21; 3: -19.9

Below are some molecules; for each one, tell me its ΔGbind (estimated experimental).
1. CCCOC(=O)/C=C/c1ccc(O)c(OC)c1
2. CC(=O)N[C@H]1[C@H]([C@H](O)[C@H](O)CO)OC(C(=O)O)=C[C@@H]1O [DANA, reference compound]
3. COc1ccc(S(=O)(=O)c2ccc(/C=C/C(=O)O)cc2OC)cc1
4. CCOC(=O)/C=C/c1cc(OC)c(O)c([N+](=O)[O-])c1

Response line:
-18.2
-27.2
-18.3
-19.7

Could you tell me ΔGbind (estimated experimental) for each of these molecules? They are listed below.
1. CCCCOC(=O)/C=C/c1ccc(O)c(OC)c1
2. COc1cccc(S(=O)(=O)c2ccc(/C=C/C(=O)O)cc2OC)c1

Response line:
1. -16.4
2. -16.4
